# Tested on: U2OS cells
# assay_procedure: WST-1 proliferation assay on U2OS cells treated with peptide
# Format: cell-based
# run_parameters: High sera, 1 uM, head 5 SD
Examples of substances with documented proliferation hit score, High sera follow.
Numbers only; they are read as SD.

SEQ ID NO: 33681: peptide hit of Table E; sequence only in Sequence Listing (IMAIFFFFCIIVSSLPTAELGTENACSTCLLNE; listed as Homo sapiens)    −0.8283

Supply reported proliferation hit score, High sera belonging to this substance: SEQ ID NO: 29230: peptide hit of Table E; sequence only in Sequence Listing (REQVPGMGGKSWLFFYSLVFCALLPLPRREDPFKLF; listed as Homo sapiens)
−5.771

Supply reported proliferation hit score, High sera belonging to this substance: SEQ ID NO: 37997: synthetically produced target protein, secreted tumor suppressor; sequence only in Sequence Listing (MSRLSLSWESLTNAIWPLDLQDIKGYLPNPLPQRVNLRKQILSISKEPN; listed as Homo sapiens)
−5.9599

Supply reported proliferation hit score, High sera belonging to this substance: SEQ ID NO: 38081: peptide hit of Table E; sequence only in Sequence Listing (MRRAWRPRLLGAALVAH; listed as Homo sapiens)
−15.19

Supply reported proliferation hit score, High sera belonging to this substance: SEQ ID NO: 33599: ORF peptide; sequence only in Sequence Listing (MCLGLLFCFMPLSLVVSSEEARFKVAADLCGFATGNSW; listed as Homo sapiens)
−2.566

* * *

# Tested on: HCT116 cells
# assay_procedure: WST-1 proliferation assay on HCT116 cells treated with peptide
# Assay type: cell-based
# run_parameters: High sera, 0.1 uM, head 3 SD
Examples of substances with documented proliferation hit score, High sera follow.
Numbers only; they are read as SD.

Worked examples, 4 substances total:
SEQ ID NO: 33681: peptide hit of Table E; sequence only in Sequence Listing (IMAIFFFFCIIVSSLPTAELGTENACSTCLLNE; listed as Homo sapiens)    0.9926
SEQ ID NO: 38081: peptide hit of Table E; sequence only in Sequence Listing (MRRAWRPRLLGAALVAH; listed as Homo sapiens)    −0.4952
SEQ ID NO: 37997: synthetically produced target protein, secreted tumor suppressor; sequence only in Sequence Listing (MSRLSLSWESLTNAIWPLDLQDIKGYLPNPLPQRVNLRKQILSISKEPN; listed as Homo sapiens)    −3.114
SEQ ID NO: 33599: ORF peptide; sequence only in Sequence Listing (MCLGLLFCFMPLSLVVSSEEARFKVAADLCGFATGNSW; listed as Homo sapiens)    0.5427

Supply reported proliferation hit score, High sera belonging to this substance: SEQ ID NO: 29230: peptide hit of Table E; sequence only in Sequence Listing (REQVPGMGGKSWLFFYSLVFCALLPLPRREDPFKLF; listed as Homo sapiens)
2.159

* * *

# Tested on: U2OS cells
# assay_procedure: WST-1 proliferation assay on U2OS cells treated with peptide
# Format: cell-based
# run_parameters: Low sera (continued), 0.5 uM, head 3 SD
proliferation hit score, Low sera under 2 SD gets label 1, anything at or over 2 SD gets label 0.

SEQ ID NO: 38076: ORF peptide; sequence only in Sequence Listing (MHLLLLPVIFLPWVLPQHKHTSATPGFSSEKQFMSETENQTANVKFY; listed as Homo sapiens)    label 0
SEQ ID NO: 34047: peptide hit of Table E; sequence only in Sequence Listing (MHINYFFFLKLFLSLQNLILALDLRRESLTRDETQ; listed as Homo sapiens)    label 0
SEQ ID NO: 38017: peptide hit of Table E; sequence only in Sequence Listing (GVFVVARDRRRRELRTGAFSLLLGVVALLPLCGKRIQALPRACGCGGPEVLVVPR; listed as Homo sapiens)    label 0
SEQ ID NO: 28759: peptide hit of Table E; sequence only in Sequence Listing (MKKSCRWVFFLITKSLFKETVA; listed as Homo sapiens)    label 1

Next substance, please.
Take the substance SEQ ID NO: 38073: peptide hit of Table E; sequence only in Sequence Listing (MTVSLFLLLATSQSQDGCCDSGSCPNSRQQEGHGAAPASSCLPIP; listed as Homo sapiens) and say whether its proliferation hit score, Low sera is less than 2 SD.
label 0
